So I've got a bunch of molecules here, and I need their MIC values.
test system: Klebsiella pneumoniae; test: Antibacterial activity against Klebsiella pneumoniae ATCC 700603 assessed as reduction in bacterial growth incubated for 18 to 24 hrs by broth microdilution method; assay type: functional; details: time 18-24 hrs
Peptide text beside a SMILES is read from it. * marks the point of attachment. Myristoyl = CCCCCCCCCCCCCC(=O)*; Hexanoyl = CCCCCC(=O)*
Report only the number, with the unit µM understood.

Query: Fill in the recorded MIC for this molecule, with Klebsiella pneumoniae as test system: CCCCCC(=O)N[C@@H](CCCCN)C(=O)N[C@@H](CCCCN)C(=O)N[C@@H](Cc1c[nH]c2ccccc12)C(=O)N[C@@H](Cc1c[nH]c2ccccc12)C(N)=O (Hexanoyl-KKWW-NH2)
Response: 128

Query: Fill in the recorded MIC for this molecule, with Klebsiella pneumoniae as test system: CCCCCC(=O)NCCCC[C@H](NC(=O)CCCCC)C(=O)N[C@@H](CCCCN)C(=O)N[C@@H](CCCCN)C(=O)N[C@@H](Cc1c[nH]c2ccccc12)C(=O)N[C@@H](Cc1c[nH]c2ccccc12)C(N)=O (Hexanoyl-K(Hexanoyl)KKWW-NH2)
Response: 128

Query: Fill in the recorded MIC for this molecule, with Klebsiella pneumoniae as test system: CCCCCCCCCCCCCC(=O)NCCCC[C@H](NC(=O)CCCCCCCCCCCCC)C(=O)N[C@@H](CCCCN)C(=O)N[C@@H](CCCCN)C(=O)N[C@@H](Cc1c[nH]c2ccccc12)C(=O)N[C@@H](Cc1c[nH]c2ccccc12)C(N)=O (Myristoyl-K(Myristoyl)KKWW-NH2)
Response: 128

Query: Fill in the recorded MIC for this molecule, with Klebsiella pneumoniae as test system: CCCCCCCCCCCCCC(=O)N[C@@H](CCCCN)C(=O)N[C@@H](CCCCN)C(=O)N[C@@H](Cc1c[nH]c2ccccc12)C(=O)N[C@@H](Cc1c[nH]c2ccccc12)C(N)=O (Myristoyl-KKWW-NH2)
Response: 32

* * *

So I've got a bunch of compounds here, and I need their MIC values.
test system: Escherichia coli; assay: Antibacterial activity against Escherichia coli ATCC 25922 assessed as reduction in bacterial growth incubated for 18 to 24 hrs by broth microdilution method; assay type: functional; conditions: time 18-24 hrs
Peptide text beside a SMILES is read from it. * marks the point of attachment. Myristoyl = CCCCCCCCCCCCCC(=O)*; Lauroyl = CCCCCCCCCCCC(=O)*; Decanoyl = CCCCCCCCCC(=O)*; Hexanoyl = CCCCCC(=O)*; Butyryl = CCCC(=O)*
Report only the number, with the unit µM understood.

Query: Tell me the measured MIC of CN[C@@H]1[C@H](O[C@H]2[C@H](O[C@H]3[C@H](O)[C@@H](O)[C@H](N=C(N)N)[C@@H](O)[C@@H]3N=C(N)N)O[C@@H](C)[C@]2(O)C=O)O[C@@H](CO)[C@H](O)[C@H]1O , please.
Response: 4

Query: Tell me the measured MIC of COc1cccc(OC)c1C(=O)N[C@@H]1C(=O)N2[C@@H]1SC(C)(C)[C@@H]2C(=O)O , please.
Response: 128

Query: Tell me the measured MIC of CCCCCC(=O)N[C@@H](CCCCN)C(=O)N[C@@H](CCCCN)C(=O)N[C@@H](Cc1c[nH]c2ccccc12)C(=O)N[C@@H](Cc1c[nH]c2ccccc12)C(N)=O (Hexanoyl-KKWW-NH2) , please.
Response: 128

Query: Tell me the measured MIC of CC(=O)OCC1=C(C(=O)O)N2C(=O)[C@@H](NC(=O)Cc3cccs3)[C@H]2SC1 , please.
Response: 1

Query: Tell me the measured MIC of CCCCCCCCCC(=O)N[C@@H](CCCCN)C(=O)N[C@@H](CCCCN)C(=O)N[C@@H](Cc1c[nH]c2ccccc12)C(=O)N[C@@H](Cc1c[nH]c2ccccc12)C(N)=O (Decanoyl-KKWW-NH2) , please.
Response: 16

Query: Tell me the measured MIC of CCCC(=O)NCCCC[C@H](NC(=O)CCC)C(=O)N[C@@H](CCCCN)C(=O)N[C@@H](CCCCN)C(=O)N[C@@H](Cc1c[nH]c2ccccc12)C(=O)N[C@@H](Cc1c[nH]c2ccccc12)C(N)=O (Butyryl-K(Butyryl)KKWW-NH2) , please.
Response: 128

Query: Tell me the measured MIC of CCCCCCCCCCCC(=O)NCCCC[C@H](NC(=O)CCCCCCCCCCC)C(=O)N[C@@H](CCCCN)C(=O)N[C@@H](CCCCN)C(=O)N[C@@H](Cc1c[nH]c2ccccc12)C(=O)N[C@@H](Cc1c[nH]c2ccccc12)C(N)=O (Lauroyl-K(Lauroyl)KKWW-NH2) , please.
Response: 128

Query: Tell me the measured MIC of CCCCCCCCCC(=O)NCCCC[C@H](NC(=O)CCCCCCCCC)C(=O)N[C@@H](CCCCN)C(=O)N[C@@H](CCCCN)C(=O)N[C@@H](Cc1c[nH]c2ccccc12)C(=O)N[C@@H](Cc1c[nH]c2ccccc12)C(N)=O (Decanoyl-K(Decanoyl)KKWW-NH2) , please.
Response: 16

Query: Tell me the measured MIC of CCCCCCCCCCCCCC(=O)NCCCC[C@H](NC(=O)CCCCCCCCCCCCC)C(=O)N[C@@H](CCCCN)C(=O)N[C@@H](CCCCN)C(=O)N[C@@H](Cc1c[nH]c2ccccc12)C(=O)N[C@@H](Cc1c[nH]c2ccccc12)C(N)=O (Myristoyl-K(Myristoyl)KKWW-NH2) , please.
Response: 128
